Data provenance: patent US11415579B2

# tested_target: human cyclin-dependent kinase 2 (Cdk2) (Homo sapiens, UniProt P24941)
# Construct: poly-histidine; made in house; host or cells: E. coli
# protocol: Kinetic thiol consumption assay with wild type Cdk2 (C177)
# Assay type: binding
# Parameters: unit not given here
# conditions_used: 500 μM ligand, 5 μM thiol, phosphate buffer pH 8
Rate constant with Cdk2 (k(Cdk2)) below 0.01 gives Not fulfilled; Rate constant with Cdk2 (k(Cdk2)) at or above it gives Fulfilled.

C=CC(=O)Nc1ccccc1C(=O)c1ccccc1	Fulfilled
C=CC(=O)N1CCCc2cc(C(=O)OC)ccc21	Fulfilled
C=CC(=O)NCCNC(=O)C1CCCN1S(=O)(=O)c1ccccc1 (stereo not drawn)	Not fulfilled
C=CC(=O)N1CCCCCC1c1cccnc1 (stereo not drawn)	Not fulfilled
C=CC(=O)Nc1nc2ccccc2n1CCc1ccccn1	Fulfilled
C=CC(=O)Nc1ccccc1-c1ccccc1	Not fulfilled
C=CC(=O)N1CCC2(CCCN(Cc3ccccc3)C2)C1 (stereo not drawn)	Not fulfilled
C=CC(=O)N1CC(n2cccn2)C1	Not fulfilled
C=CC(=O)N1CCCCCC1c1cccs1 (stereo not drawn)	Not fulfilled
C=CC(=O)NC(C)c1cccc(N2CCOCC2)c1 (stereo not drawn)	Not fulfilled

Lookup: Is the recorded value of Rate constant with Cdk2 (k(Cdk2)) equal to or greater than 0.01 for this molecule? C=CC(=O)N1CC2CN(Cc3ccccc3)CC2C1 (stereo not drawn)
Found: Not fulfilled

Lookup: Is the recorded value of Rate constant with Cdk2 (k(Cdk2)) equal to or greater than 0.01 for this molecule? C=CC(=O)N1CCCC1c1cnc2ccccc2c1 (stereo not drawn)
Found: Not fulfilled

Lookup: Is the recorded value of Rate constant with Cdk2 (k(Cdk2)) equal to or greater than 0.01 for this molecule? C=CC(=O)N(C(=O)C=C)c1c2ccccc2n2c(C)nc3ccccc3c12
Found: Fulfilled

Lookup: Is the recorded value of Rate constant with Cdk2 (k(Cdk2)) equal to or greater than 0.01 for this molecule? C=CC(=O)N1CCCC(C(=O)OCC)C1 (stereo not drawn)
Found: Not fulfilled

Lookup: Is the recorded value of Rate constant with Cdk2 (k(Cdk2)) equal to or greater than 0.01 for this molecule? C=CC(=O)N1CCC(c2nc3ccccc3[nH]2)CC1
Found: Not fulfilled

* * *

# tested_target: Cdk2(S181C) (C177A) (Homo sapiens, UniProt P24941, C177A/S181C)
# Construct: poly-histidine; made in house; host or cells: E. coli
# protocol: Kinetic thiol consumption assay with Cdk2 mutant S181C
# Assay type: binding
# Design: key: rate constant with Cdk2 ÷ rate constant with model thiol (fold)
# conditions_used: Cdk2 S181C, additional mutation C177A
Rate enhancement, Cdk2 S181C below 2 gives 0; Rate enhancement, Cdk2 S181C at or above it gives 1.

Consider the following illustrative entries.
O=C(c1ccccc1)[C@@H]1O[C@H]1c1ccccc1	1
C=CC(=O)N1CCC(NC(=O)C2CCC2)C1 (stereo not drawn)	0

Lookup: Is the recorded value of Rate enhancement, Cdk2 S181C equal to or greater than 2 for this compound? C=CC(=O)Nc1cccc(C(=O)c2ccccc2)c1
Found: 0

Lookup: Is the recorded value of Rate enhancement, Cdk2 S181C equal to or greater than 2 for this compound? O=C(CCl)NCCc1c[nH]c2ccccc12
Found: 1

Lookup: Is the recorded value of Rate enhancement, Cdk2 S181C equal to or greater than 2 for this compound? C=CC(=O)Nc1ccc(C23CC4CC(CC(O)(C4)C2)C3)cc1
Found: 0

Lookup: Is the recorded value of Rate enhancement, Cdk2 S181C equal to or greater than 2 for this compound? C=CC(=O)N1CCC2(CCCN(Cc3ccccc3)C2)C1 (stereo not drawn)
Found: 0

Lookup: Is the recorded value of Rate enhancement, Cdk2 S181C equal to or greater than 2 for this compound? C=CS(=O)(=O)c1ccccc1
Found: 0

Lookup: Is the recorded value of Rate enhancement, Cdk2 S181C equal to or greater than 2 for this compound? C=CC(=O)N1CCN(c2ccccc2C(N)=O)CC1
Found: 0

Lookup: Is the recorded value of Rate enhancement, Cdk2 S181C equal to or greater than 2 for this compound? C=CC(=O)N1CC2CC2C1 (stereo not drawn)
Found: 1

Lookup: Is the recorded value of Rate enhancement, Cdk2 S181C equal to or greater than 2 for this compound? C=CC(=O)N(Cc1ccco1)C12CC3CC(CC(C3)C1)C2
Found: 0

Lookup: Is the recorded value of Rate enhancement, Cdk2 S181C equal to or greater than 2 for this compound? C=CC(=O)NCC1(NC(=O)OC(C)(C)C)CCCCC1
Found: 1

Lookup: Is the recorded value of Rate enhancement, Cdk2 S181C equal to or greater than 2 for this compound? C=CC(=O)N(CC(=O)NC1CC1)C1CC1
Found: 0

Lookup: Is the recorded value of Rate enhancement, Cdk2 S181C equal to or greater than 2 for this compound? C=CC(=O)N1CCCCCC1c1cccs1 (stereo not drawn)
Found: 0

Lookup: Is the recorded value of Rate enhancement, Cdk2 S181C equal to or greater than 2 for this compound? C=CC(=O)N1CCCCCC1C/C=C/c1ccccc1 (stereo not drawn)
Found: 1

Lookup: Is the recorded value of Rate enhancement, Cdk2 S181C equal to or greater than 2 for this compound? C=CC(=O)N1CCCC1CC1CC2CCC1C2 (stereo not drawn)
Found: 0

* * *

# tested_target: Cdk2(C177A, F80C) (Homo sapiens, UniProt P24941, C177A/F80C)
# Construct: poly-histidine; made in house; host or cells: E. coli
# protocol: Kinetic thiol consumption assay with Cdk2 mutant F80C, incl. kobs versus concentration (Kd, k2)
# Format: binding
# conditions_used: Protein: Cdk2; cysteine position F80C; additional mutation C177A; in h^-1
property_label: Rate constant with Cdk2 F80C
Please reply with the number alone, leaving off any unit.

Worked examples follow.
C=CC(=O)NC(C)c1ccc2c(c1)OCO2 (stereo not shown)	0.0006296
C=CC(=O)Nc1ccc2c(c1)OC1(CCCC1)O2	0.006411
CN(C#N)Cc1ccccc1	0.02092
C=CC(=O)NCc1ccc(OC)cc1	0.001168
C=CS(=O)(=O)c1ccccc1	0.00407

Lookup: Find the recorded Rate constant with Cdk2 F80C belonging to C=CC(=O)NCc1ccc(-c2csnn2)cc1 and report it.
Found: 0.003494

Lookup: Find the recorded Rate constant with Cdk2 F80C belonging to C=CC(=O)N(Cc1ccc2c(c1)CCO2)C1CCCC1 and report it.
Found: 0.06488

Lookup: Find the recorded Rate constant with Cdk2 F80C belonging to C=CC(=O)Nc1cccc(C(=O)c2ccccc2)c1 and report it.
Found: 0.1527

Lookup: Find the recorded Rate constant with Cdk2 F80C belonging to C=CC(=O)Nc1ccc(-c2ncccn2)cc1 and report it.
Found: 0.964

Lookup: Find the recorded Rate constant with Cdk2 F80C belonging to C=CC(=O)NC1CC(NC(=O)C2CCC2)C1 (stereo not shown) and report it.
Found: 0.00203

* * *

Catalogue of compounds with associated Rate constant with Cdk2[C177A, F80C, K278C] (k(Cdk2_mut))
# tested_target: Cdk2[C177A, F80C, K278C] (Homo sapiens, UniProt P24941, C177A/F80C/K278C)
# Construct: poly-histidine; made in house; host or cells: E. coli
# protocol: Kinetic thiol consumption assay with mutant Cdk2 as model thiol
# Format: binding
# Design: unit not given here
# conditions_used: 500 μM ligand, 5 μM thiol, phosphate buffer pH 8
Please reply with the number alone, leaving off any unit.

Worked examples follow.
C=CC(=O)NC1(c2noc(C)n2)CCCCCC1	0.00171
C=CC(=O)Nc1ccc2nc(C)[nH]c2c1	0.00922
C=CC(=O)N1C(C(=O)c2ccccc2)C1c1ccccc1 (stereo not drawn)	0.00547
C=CC(=O)N(c1cccc2ncccc12)C1CCC1	0.01104
C=CC(=O)N1CCCc2cc(C(=O)OC)ccc21	0.323

Now take the following compound into account.
Lookup: Find the recorded Rate constant with Cdk2[C177A, F80C, K278C] (k(Cdk2_mut)) belonging to C=CC(=O)NC(C)c1cc(OC)c(OC)c(OC)c1 (stereo not drawn) and report it.
Found: 0.00226

* * *

# tested_target: Cdk2(C177A, F80C) (Homo sapiens, UniProt P24941, C177A/F80C)
# Construct: poly-histidine; made in house; host or cells: E. coli
# protocol: Kinetic thiol consumption assay with Cdk2 mutant F80C, incl. kobs versus concentration (Kd, k2)
# Type: binding
# conditions_used: Protein: Cdk2; cysteine position F80C; additional mutation C177A; in h^-1
Catalogue of compounds with associated Rate constant with Cdk2 F80C
Please reply with the number alone, leaving off any unit.

Worked examples follow.
C=CC(=O)N1C(=O)CC(c2ccccc2)N(C(=O)C=C)c2ccccc21 (centres unmarked)	3.436
C=CC(=O)N1CCCCCC1c1cccnc1 (centres unmarked)	0.0008934
N#Cc1ccncn1	0.001332
Cn1cc(S(=O)(=O)N2CCOCC2)cc1C(=O)NC(=O)CCl	0.2493

Lookup: Find the recorded Rate constant with Cdk2 F80C belonging to C=CC(=O)NC1CCN(Cc2ccccc2)CC1 and report it.
Found: 0.001773
